Assay: Cycloheximide Counterscreen for Small Molecule Inhibitors of Shiga Toxin; note: read at 38.3 µM for the half of the compounds with a filed dose; 0% is about no effect
Details: cell reporter, cycloheximide protein synthesis inhibition counterscreen; active compounds read high
Hit rate of the full screen: of about 300,000 compounds, about 37,000 (12%) were called active. The sample holds actives, similar compounds and a random draw of the others, so the mix is not that of the screen.
Task for the reader: assign each of the following compounds its reported max response.
// units = %; emit number, no label

Need max response of CC(C)Cc1nnc(NC(=O)CCc2ccccc2)s1 , thanks. -1.48

What do you have for O=C(Nc1nnc(SCc2c(Cl)cccc2Cl)s1)c1cccc([N+](=O)[O-])c1 ? 8

What do you have for CC1(c2ccccc2)CC(C)(C)N(C(=O)c2cc([N+](=O)[O-])cc([N+](=O)[O-])c2)c2ccccc21 (stereo unspecified) ? -4.42

What do you have for O=C(Nc1nnc(SCc2ccc(Cl)cc2Cl)s1)C1COc2ccccc2O1 (stereo unspecified) ? -3.01

What do you have for O=C(Nc1nnc(CCc2ccccc2)s1)C1CCCO1 (stereo unspecified) ? 14.8

What do you have for O=C(NC1CCCC1)C1CC(=O)N(c2ccc(F)cc2)C1 (stereo unspecified) ? -4.78
